# assay: Hemolytic activity in human RBC assessed as hemolysis at 128 uM relative to control
# Format: toxicity, cell-based, Erythrocyte
# measurementParameters: red blood cells, read-out: Activity
measuredParameter: hemolysis at 128 µM (%)
Report the figure in % without appending any unit label.

Query :: I have this substance here, `H-KKLLRLLKVLLR-OH` , and I need its recorded hemolysis at 128 µM.
Result :: 35

###

# assay: Hemolytic activity in human RBC assessed as hemolysis at 2 uM relative to control
# Assay type: toxicity, cell-based, Erythrocyte
# measurementParameters: red blood cells, read-out: Activity
measuredParameter: hemolysis at 2 µM (%)
Form entry: value (%) — number only.

Query :: Entry `H-KKLLKKLLRLLKVLLR-OH` has what hemolysis at 2 µM?
Result :: 90
